meta.source: patent US9321756B2

target: full length recombinant Pim-1 (Homo sapiens (Human)); assay: Pim enzyme assay (HTRF, phosphorylation of biotinylated-BAD (S112) peptide), Pim-1; assay type: biochemical; conditions: Pim-1 enzyme assay; read-out: Pim_1_IC50
Sequence (P11309 whole entry): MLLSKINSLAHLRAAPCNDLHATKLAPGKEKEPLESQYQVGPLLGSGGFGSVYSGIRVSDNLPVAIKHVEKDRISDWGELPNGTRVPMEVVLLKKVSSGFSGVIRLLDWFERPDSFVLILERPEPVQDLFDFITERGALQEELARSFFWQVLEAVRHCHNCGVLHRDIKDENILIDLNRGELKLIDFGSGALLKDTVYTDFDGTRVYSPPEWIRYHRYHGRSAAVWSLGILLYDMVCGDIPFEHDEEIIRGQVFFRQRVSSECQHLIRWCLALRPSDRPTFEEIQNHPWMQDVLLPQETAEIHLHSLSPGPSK
pIC50: −log10 of the molar value.
Reported metric: pIC50

In [3]: df
Out[3]:
                                   molecule                       experimental_system  reported_metric  numeric_readout
0  Nc1nnc(-c2ccc3[nH]cc(-c4cncc(-c5ccc(Cl)cc5)n4)c3c2)o1  full length recombinant Pim-1 (Homo sapiens (Human))            pIC50             7.90
1  Fc1ccccc1-c1c[nH]c2ccc(-c3nnc(N[C@H]4CCCNC4)s3)cc12 (stereo in doubt)  full length recombinant Pim-1 (Homo sapiens (Human))            pIC50             7.53
2  CC(C)Nc1cccc(-c2c[nH]c3ccc(-c4nnc(N)s4)cc23)n1  full length recombinant Pim-1 (Homo sapiens (Human))            pIC50             7.68
3  Nc1nnc(-c2ccc3[nH]cc(-c4cnc(N5CCCC5)cn4)c3c2)s1  full length recombinant Pim-1 (Homo sapiens (Human))            pIC50             6.25
